target: HLA-B*07:02; test: IEDB peptide-MHC binding, purified MHC/competitive/radioactivity; filed as Kd, often an IC50 or EC50 that approximates it; bounds were set here for any values at or beyond the usual limits of such assays; details: source organism: Dengue virus 3 Martinique/1243/1999
pKd: −log10 of the molar value.
Below, each of the sequences is paired with its reported pKd value.
reportedMetric: pKd

{"recordSequence": "SPKRLATAIA", "observed": 7.47}
{"recordSequence": "IPEGRVIDL", "observed": 6.85}

----------
target: HLA-A*26:01; test: IEDB peptide-MHC binding, purified MHC/competitive/fluorescence; filed as Kd, often an IC50 or EC50 that approximates it; bounds were set here for any values at or beyond the usual limits of such assays; conditions: source organism: Candida albicans SC5314
reportedMetric: Kd (µM)

{"recordSequence": "RVYNNTARY", "observed": 0.0768}
